# study_system: UniProtKB P63085
# assay_summary: TdF (Temperature Dependence Fluorescence, thermal shift) assay for ERK
# Type: binding
# condition: 3 μM ERK protein, uncertainty estimated ±50%, read-out: Kd TdF
property_measured: Kd (nM)

Example entries and their recorded answers appear below.
{"molecule": "Cn1cc2cc(-c3n[nH]c4ccc(C(=O)NC5C[C@@H]6C[C@H]5N(Cc5c(F)cccc5F)C6)cc34)ccc2n1 (some centres unmarked)", "value_unit": "nM", "Kd": 3.29}
{"molecule": "CC(C)Oc1ccc(-c2n[nH]c3ccc(C(=O)N[C@@H]4CCCN(Cc5ccccc5F)C4)cc23)cn1", "value_unit": "nM", "Kd": 2}
{"molecule": "O=C(NC1CCCN(Cc2ccccc2F)C1)c1ccc2[nH]nc(-c3ccncc3)c2c1 (centres unmarked)", "value_unit": "nM", "Kd": 0.3}
{"molecule": "COc1cccc(F)c1CN1C[C@H]2C[C@@H]1[C@H](NC(=O)c1ccc3[nH]nc(-c4ccc5nn(C)cc5c4)c3c1)C2", "value_unit": "nM", "Kd": 85.2}
{"molecule": "CC(c1ccccc1)N1CCC[C@@H](NC(=O)c2ccc3[nH]nc(-c4ccncc4)c3c2)C1 (some centres unmarked)", "value_unit": "nM", "Kd": 804}
{"molecule": "O=C(NC1CNCCC1c1cccc(F)c1)c1ccc2[nH]nc(-c3ccncc3)c2c1 (centres unmarked)", "value_unit": "nM", "Kd": 106}

a. COc1cccc(F)c1CN1CCC[C@@H](NC(=O)c2ccc3[nH]nc(-c4ccc5cncn5c4)c3c2)C1
b. Cc1cc(-c2n[nH]c3ccc(C(=O)N[C@@H]4CCCN(Cc5csc6ccccc56)C4)cc23)ccn1
c. Cc1cc(-c2n[nH]c3ccc(C(=O)N[C@@H]4CCCN(CCc5ccccc5F)C4)cc23)ccn1
d. O=C(N[C@@H]1CCCN(Cc2ccccn2)C1)c1ccc2[nH]nc(-c3ccc4c(c3)CCO4)c2c1
e. Cc1cc(-c2n[nH]c3ccc(C(=O)N[C@@H]4CCCN(Cc5ncccc5F)C4)cc23)ccn1
Order each entry by recorded Kd, climbing from the minimum. Would you mind listing the labels in the order requested?
a, b, e, c, d
(a: 0.1 nM, b: 0.53 nM, e: 1.89 nM, c: 4.8 nM, d: 9.2 nM)

###

# study_system: fully phosphorylated, mouse aERK2 enzyme (Mus musculus (Mouse))
# assay_summary: Active ERK2 (aERK) IMAP-FP assay, condition 2
# Format: biochemical
# condition: active ERK2; read-out: aErk2 Ic50
# Procedure: Active ERK2 (aERK) Assay: (Unless Indicated Otherwise, the Data Provided for aERK was obtained using Condition 1) Activated ERK2 activity was determined in an IMAP-FP assay (Molecular Devices). […] Phosphorylation reactions were allowed to proceed for 40-45 minutes and were immediately quenched by the addition of 60 μL IMAP detection beads (1:1000 dilutions) in IMAP binding buffer. Plates were read on EnVision reader after 30 minutes binding equilibration.
property_measured: IC50 (nM)

{"smiles_code": "CNC(=O)[C@@H]1CC[C@@H](NC(=O)c2ccc3[nH]nc(-c4ccncc4)c3c2)CN1Cc1c(F)cccc1OC", "study_system": "fully phosphorylated, mouse aERK2 enzyme (Mus musculus (Mouse))", "IC50 (nM)": 3.2}
{"smiles_code": "COc1cccc(F)c1CN1C[C@H](NC(=O)c2ccc3[nH]nc(-c4ccnc(C)c4)c3c2)CC[C@H]1C(=O)NCCO", "study_system": "fully phosphorylated, mouse aERK2 enzyme (Mus musculus (Mouse))", "IC50 (nM)": 5.6}

a. COc1cccc(F)c1CN1C[C@H](NC(=O)c2ccc3[nH]nc(-c4ccnnc4)c3c2)CC[C@H]1C(=O)N(C)C
b. CNC(=O)[C@@H]1CC[C@@H](NC(=O)c2ccc3[nH]nc(-c4ccnc(C)c4)c3c2)CN1Cc1c(F)cccc1OC
c. COc1cccc(F)c1CN1C[C@H](NC(=O)c2ccc3[nH]nc(-c4ccnc(C)c4)c3c2)CC[C@H]1C(=O)NCCCNC(=O)OC(C)(C)C
d. CCN(CC)C(=O)[C@@H]1CC[C@@H](NC(=O)c2ccc3[nH]nc(-c4ccc5nn(C)cc5c4)c3c2)CN1Cc1c(F)cccc1OC
e. CCN(CC)C(=O)[C@@H]1CC[C@@H](NC(=O)c2ccc3[nH]nc(-c4ccnc(C)c4)c3c2)CN1Cc1c(F)cccc1F
Sort the 5 compounds by IC50; largest first, smallest last. Would you mind listing the labels in the order requested?
a, e, d, c, b

A. COc1cccc(F)c1CN1C[C@H](NC(=O)c2ccc3[nH]nc(-c4ccc5nn(C)cc5c4)c3c2)CC[C@H]1C(=O)Nc1nccs1
B. CCN(CC)C(=O)[C@@H]1CC[C@@H](NC(=O)c2ccc3[nH]nc(-c4ccnc(C)c4)c3c2)CN1Cc1cccs1
C. COc1cccc(F)c1CN1C[C@H](NC(=O)c2ccc3[nH]nc(-c4ccncc4)c3c2)CC[C@H]1C(N)=O
D. COc1cccc(F)c1CN1C[C@H](NC(=O)c2ccc3[nH]nc(-c4ccnc(C)c4)c3c2)CC[C@H]1C(=O)N1CCOCC1
Sort the 4 compounds by IC50; largest first, smallest last. Would you mind listing the labels in the order requested?
A, B, D, C

a. COc1cccc(F)c1CN1C[C@H](NC(=O)c2ccc3[nH]nc(-c4ccnc(C)c4)c3c2)CC[C@H]1C(=O)N1CCN(C(=O)OC2CCCC2)CC1
b. CCN(CC)C(=O)[C@@H]1CC[C@@H](NC(=O)c2ccc3[nH]nc(-c4ccnc(C)c4)c3c2)CN1Cc1ccccc1F
c. COc1cccc(F)c1CN1C[C@H](NC(=O)c2ccc3[nH]nc(-c4ccnc(C)c4)c3c2)CC[C@H]1C(=O)NC1CCCC1
Order each entry by recorded IC50, climbing from the minimum. Would you mind listing the labels in the order requested?
b, a, c
(b: 20.1 nM, a: 31 nM, c: 105 nM)

###

# study_system: ERK protein (Mus musculus, UniProt P63085)
# assay_summary: TdF (Temperature Dependence Fluorescence, thermal shift) assay for ERK
# Type: binding
# condition: 3 μM ERK protein, uncertainty estimated ±50%, read-out: Kd TdF
pKd: −log10 of the molar value.
property_measured: pKd

{"compound": "[2H]C1(N2CCC[C@@H](NC(=O)c3ccc4[nH]nc(-c5ccnc(C)c5)c4c3)C2)CCc2ccccc21 (stereo partly drawn)", "study_system": "ERK protein (Mus musculus, UniProt P63085)", "pKd": 9.47}

I. CC(=O)Nc1cc(-c2n[nH]c3ccc(C(=O)N[C@@H]4CCCN(Cc5ccccc5F)C4)cc23)ccc1O
II. CC(=O)n1cc(CN2CCC[C@@H](NC(=O)c3ccc4[nH]nc(-c5ccnc(C)c5)c4c3)C2)c2ccccc21
When the recorded pKd values are compared, which is smaller: that of I or that of II ? Output the label that corresponds to your choice.
II
(II: 8.71, I: 9.32)

###

# study_system: fully phosphorylated, mouse aERK2 enzyme (Mus musculus (Mouse), UniProt P63085)
# Sequence (P63085 whole entry): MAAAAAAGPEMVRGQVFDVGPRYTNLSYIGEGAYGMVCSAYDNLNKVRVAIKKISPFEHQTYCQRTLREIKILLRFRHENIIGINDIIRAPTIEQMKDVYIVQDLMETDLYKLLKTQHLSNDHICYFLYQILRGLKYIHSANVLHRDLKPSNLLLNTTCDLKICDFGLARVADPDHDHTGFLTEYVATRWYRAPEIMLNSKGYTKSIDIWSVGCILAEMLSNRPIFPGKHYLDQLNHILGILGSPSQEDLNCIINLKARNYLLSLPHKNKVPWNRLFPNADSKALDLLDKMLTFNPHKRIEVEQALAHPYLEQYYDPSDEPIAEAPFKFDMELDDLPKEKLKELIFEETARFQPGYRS
# assay_summary: Active ERK2 (aERK) IMAP-FP assay, condition 2
# Type: biochemical
# condition: aERK assay condition 2, 30 uM ATP; read-out: aERK IC50
pIC50: −log10 of the molar value.
property_measured: pIC50

Example entries and their recorded answers appear below.
{"molecule": "CN(C)C(=O)C(c1ccccc1F)N1CCC[C@@H](NC(=O)c2ccc3[nH]nc(-c4ccncc4)c3c2)C1 (single isomer, unassigned)", "pIC50": 7.58}
{"molecule": "COc1cccc(F)c1CN1C[C@H](NC(=O)c2ccc3[nH]nc(-c4ccnc(C)c4)c3c2)CC[C@H]1C(=O)Nc1nccs1", "pIC50": 7.85}
{"molecule": "CNC(=O)C(c1c(F)cccc1F)N1CCC[C@@H](NC(=O)c2ccc3[nH]nc(-c4ccncc4)c3c2)C1 (single isomer, unassigned) [drawing 506]", "pIC50": 7.68}
{"molecule": "COc1cccc(F)c1CN1C[C@H](NC(=O)c2ccc3[nH]nc(-c4ccnc(C)c4)c3c2)CC[C@H]1C(=O)N(C)C1CC1", "pIC50": 8.60}
{"molecule": "COc1cccc(F)c1CN1CCC[C@@H](NC(=O)c2ccc3[nH]nc(C4=CCS(=O)(=O)CC4)c3c2)C1", "pIC50": 8.08}
{"molecule": "NC(=O)C(c1c(F)cccc1F)N1CCC[C@@H](NC(=O)c2ccc3[nH]nc(-c4ccncc4)c3c2)C1 (single isomer, unassigned) [drawing 503]", "pIC50": 6.65}

a. COc1cccc(F)c1CN1C[C@H](NC(=O)c2ccc3[nH]nc(-c4ccnc(C)c4)c3c2)CC[C@H]1C(=O)Nc1ccc(C)cc1C
b. CNC(=O)C(c1ccccc1F)N1CCC[C@@H](NC(=O)c2ccc3[nH]nc(-c4ccncc4)c3c2)C1 (single isomer, unassigned) [drawing 502]
c. COc1cccc(F)c1CN1C[C@H](NC(=O)c2ccc3[nH]nc(-c4ccnc(C)c4)c3c2)CC[C@H]1C(=O)NC[C@@H]1CC[C@@H](O)C1
d. CN(C)C(=O)C(c1c(F)cccc1F)N1CCC[C@@H](NC(=O)c2ccc3[nH]nc(-c4ccncc4)c3c2)C1 (single isomer, unassigned) [drawing 507]
Sort the 4 molecules by pIC50; largest first, smallest last. Would you mind listing the labels in the order requested?
c, b, a, d
(c: 8.82, b: 8.34, a: 7.26, d: 6.38)

1. NC(=O)C(c1c(F)cccc1F)N1CCC[C@@H](NC(=O)c2ccc3[nH]nc(-c4ccncc4)c3c2)C1 (single isomer, unassigned) [drawing 504]
2. COc1cccc(F)c1CN1C[C@H](NC(=O)c2ccc3[nH]nc(-c4ccnc(C)c4)c3c2)CC[C@H]1C(=O)NCC1CC1
Which shows the larger pIC50 value: 1 or 2 ? Output the label that corresponds to your choice.
2
(2: 8.31, 1: 7.45)

P. COc1cccc(F)c1CN1C[C@H](NC(=O)c2ccc3[nH]nc(-c4ccnc(C)c4)c3c2)CC[C@H]1C(=O)NC[C@H]1CC[C@H](O)C1
Q. COc1cccc(F)c1CN1C[C@H](NC(=O)c2ccc3[nH]nc(-c4ccnc(C)c4)c3c2)CC[C@H]1C(=O)NOCC1CC1
R. COc1ccc(NC(=O)[C@@H]2CC[C@@H](NC(=O)c3ccc4[nH]nc(-c5ccnc(C)c5)c4c3)CN2Cc2c(F)cccc2OC)cc1F
Sort the 3 molecules by pIC50; largest first, smallest last. Would you mind listing the labels in the order requested?
Q, P, R
(Q: 9.22, P: 8.89, R: 7.78)

1. COc1cccc(F)c1CN1CCC[C@@H](NC(=O)c2ccc3[nH]nc(C4CCOCC4)c3c2)C1
2. NC(=O)C(c1ccccc1F)N1CCC[C@@H](NC(=O)c2ccc3[nH]nc(-c4ccncc4)c3c2)C1 (single isomer, unassigned)
3. COc1cccc(F)c1CN1C[C@H](NC(=O)c2ccc3[nH]nc(-c4ccnc(C)c4)c3c2)CC[C@H]1C(=O)Nc1ccncc1
4. COc1cccc(F)c1CN1C[C@H](NC(=O)c2ccc3[nH]nc(-c4ccnc(C)c4)c3c2)CC[C@H]1C(=O)N1CC(C)(O)C1
5. COc1cccc(F)c1CN1C[C@H](NC(=O)c2ccc3[nH]nc(-c4ccnc(C)c4)c3c2)CC[C@H]1C(=O)NCC1(CO)CCCC1
Sort the 5 molecules by pIC50; largest first, smallest last. Would you mind listing the labels in the order requested?
4, 3, 5, 2, 1
